- Test system: T1, human big-ET-1 (SEQ ID NO:434) (Homo sapiens, UniProt P05305)
- T1 sequence (P05305 53-90 limits assumed): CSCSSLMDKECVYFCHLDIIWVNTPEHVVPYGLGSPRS
- Measurement protocol: Surface plasmon resonance (Biacore) binding, mAb capture format, 37° C.
- Condition set: analyte human big-ET-1, mAb capture
Measured attribute: ka (M/s)
Lab book: enter the figure in M/s, no units written.

// query Param item = H4H6345P: anti-big-ET-1 antibody, human IgG4 Fc; HCVR/LCVR SEQ ID NO: 354/362 (antibody, V domains shown, human IgG4 Fc) VH: EVQLVESGGGLVQPGGSLRLSCAASGFIFSSYAMTWVRQAPGKGLEWVSAISGSGVSTYYADSVKGRFTISRDNSKNTLYLQMNSLRIEDTAVYYCGKARTGTHAFDIWGQGTMVTVSS VL: DIQMTQSPSTLSASVGDRVTITCRASQSISRWLAWYQQKPGKAPKLLIYKASSLETGVPSRFSGSGSGTEFTLTISSLQPDDFGTYYCQQYNSYSSFGPGTKVDIK ; retrieve measured ka.
// result 663000

// query Try the molecule H4H6492N2: anti-big-ET-1 antibody, human IgG4 Fc; HCVR/LCVR SEQ ID NO: 418/426 (antibody, V domains shown, human IgG4 Fc) VH: EVQLVESGGGLVKPGGSLRVSCVASGFTFSNAWMTWVRQTPGKGLEWVGRIKSRTDGGTVDYVAPVKGRFTISRDDSKNTLYLQMNSLKAEDTAVYYCRADLDYWGQGTLVTVSS VL: DVVMTQSPLSLPVSLGQPASISCRSSQSLVHSDGITYLNWFQQRPGQSPRRLIYKISNRDSGVPDRFSGSGSGTDFTLKFSRVEAEDVGVYFCMQGTHWPYTFGQGTKLEIK
// result 424000

Data origin: patent US9751932B2
